# Test system: Saccharomyces cerevisiae
# test-method-notes: protein stability index of tFT-peptide fusion (C-terminal peptide) (PSI (0-1 scale)); higher = more stable (slower turnover)
# test-settings: genetic background: wild type; temperature: 30 C
Mark Criterion met for reported protein stability index of 0.7 or greater; mark Criterion not met for anything smaller.

Field: example entries. Status: answers known.
• VSEFTSHQYDSE = Criterion met
• FFAFLRFFIFYW = Criterion not met
• RFVCSRLGGSVP = Criterion not met
• QCLSIDARNGVT = Criterion not met
• RNYEGTKIEEQE = Criterion met

Form field: protein stability index at least 0.7? Entry: `RFLACSIRYLVY`
Criterion not met

Has `TLFVAWTDCMSY` a recorded protein stability index greater than or equal to 0.7?
Criterion not met

Does `VTLRASGQVFPF` have a reported protein stability index of at least 0.7?
Criterion met

* * *

# Tested on: Saccharomyces cerevisiae
# test-method-notes: protein stability index of tFT-peptide fusion (C-terminal peptide) (PSI (0-1 scale)); higher = more stable (slower turnover)
# test-settings: genetic background: wild type; temperature: 30 C
Output true (1) for protein stability index not less than 0.7; output false (0) otherwise.

- DVVGGCEKWWER: true (1)
- TNHRVRHWILRV: false (0)
- LERDRLINVLPI: true (1)
- IARLLFPPPGPI: false (0)
- AIACYLGLTSYP: false (0)
- SHGELLLGPVFL: true (1)
- CVWCSGRSPCYV: false (0)
- WFNRRISPISGI: false (0)
- SPPPHPPAAPDS: false (0)
- SPPRPPPPSPPF: true (1)

Given the entry `VLLSSWLIWLGG` , answer whether its protein stability index meets or surpasses 0.7.
false (0)

Can `WGSSGCLFGTVG` be said to have protein stability index at or above 0.7?
true (1)

Check if protein stability index >= 0.7 (inclusive). Item: `IKNRRTSKYLII`
false (0)

Check the entry `KRGGRGEKAEGK` : does protein stability index equal or exceed 0.7?
false (0)

Check the entry `PILPPLVPSSRL` : does protein stability index equal or exceed 0.7?
true (1)

* * *

# Tested on: Saccharomyces cerevisiae
# test-method-notes: protein stability index of tFT-peptide fusion (C-terminal peptide) (PSI (0-1 scale)); higher = more stable (slower turnover)
# test-settings: genetic background: das1 deletion; temperature: 30 C
value-kind: protein stability index
Please respond with just the number, no unit label.

Example results:
* VNHNWYSIYEST [TFC3 C-terminal 12 aa] | 0.729
* LMPSASLQDFYG [VID27 C-terminal 12 aa] | 0.73
* WRSIGSGPIMEF [BUG1 C-terminal 12 aa] | 0.706
* ASPTCTPQNPCV [CAB4 C-terminal 12 aa] | 0.706

Tell me its protein stability index given YAVFTVLFSIIF [SPS2 C-terminal 12 aa] as the entry.
0.297

Kindly indicate its recorded protein stability index. Item: IQKLEEARNPQF [UPS1 C-terminal 12 aa]
0.704

Consider the sequence DAFEKAIEAVYA [ARG8 C-terminal 12 aa] . State its measured protein stability index.
0.546

Return value of protein stability index for input MTDFSSSIIKGK [YCR090C C-terminal 12 aa] , no commentary.
0.713

State its protein stability index: DYYFRTGVKRLQ [ARP10 C-terminal 12 aa]
0.705

* * *

# Test system: Saccharomyces cerevisiae
# test-method-notes: protein stability index of tFT-peptide fusion (C-terminal peptide) (PSI (0-1 scale)); higher = more stable (slower turnover)
# test-settings: genetic background: wild type; temperature: 30 C
Lab note: anything with protein stability index at or over 0.7 counts as MET; the rest go in NOT MET.

Does the sequence `LQHCSAPLLTNS` have recorded protein stability index that is 0.7 or more?
MET

Exam item: decide whether the reported protein stability index for `RFRFRRTCLYAT` is at least 0.7.
NOT MET

# bool: protein stability index of `AGYENKAENKSV` >= 0.7
NOT MET

Does `YLLTAFLSAFNP` have a reported protein stability index of at least 0.7?
NOT MET

Could you tell me if the measured protein stability index of `FVVRGVFVSGFW` reaches 0.7 or more?
NOT MET

# check: protein stability index of `SLVCCGPVWVFL` is greater than or equal to 0.7
NOT MET

Can `GPRGGGGWSCES` be said to have protein stability index at or above 0.7?
MET

Can `PPIPPPPPLPPP` be said to have protein stability index at or above 0.7?
NOT MET

Would you say `LFRPNWLPLSNN` shows protein stability index at minimum 0.7?
NOT MET

Test whether the sequence `FFFPGLLVPLFP` records protein stability index of 0.7 or higher.
MET

API: above_or_equal(metric=protein stability index, cutoff=0.7) for item `LTILEPYFLLGP`
MET

protein stability index >= 0.7 for `PPPPRPPPQSPS` ?
MET

I'd appreciate it if you could say whether `WLFDFECRCILG` has protein stability index at least equal to 0.7.
NOT MET

* * *

# Tested on: Saccharomyces cerevisiae
# test-method-notes: protein stability index of tFT-peptide fusion (C-terminal peptide) (PSI (0-1 scale)); higher = more stable (slower turnover)
# test-settings: genetic background: wild type; temperature: 30 C
Respond with met for protein stability index values of 0.7 and above, not met for values below.

Here's what some known entries look like.
- YDSGNWPGFRCQ: met
- GIMNDMPSLTAT: not met
- GTCWAGAMGGVG: not met
- PAPPRSLPPSSP: not met

Determine whether this sequence has protein stability index no lower than 0.7: `MDLVSEYKIKVN`
not met

Given the entry `DVLLRGAVQPIC` , answer whether its protein stability index meets or surpasses 0.7.
not met

Dear colleague, could you confirm whether `PPPNPPATTTTP` has protein stability index at or above 0.7?
not met

Given the entry `NQCRSQVRQNGY` , answer whether its protein stability index meets or surpasses 0.7.
met

Entry `KKARGYTLEQRR` : is its protein stability index no less than 0.7?
met

* * *

# System: Saccharomyces cerevisiae
# test-method-notes: protein stability index of tFT-peptide fusion (C-terminal peptide) (PSI (0-1 scale)); higher = more stable (slower turnover)
# test-settings: genetic background: das1 deletion; temperature: 30 C
Threshold check on protein stability index: at or above 0.5 gives satisfied, strictly below gives not satisfied.

• GIKLNVVYILLG = not satisfied
• LAVRSGFPFGLF = satisfied
• YHFRLLVTCCPC = not satisfied
• ERFILVGMFGSW = satisfied

Is protein stability index at least 0.5? Consider `WILLVLACFSSG`
not satisfied

Form field: protein stability index at least 0.5? Entry: `GPWVIFSHLLLT`
not satisfied

Exam item: decide whether the reported protein stability index for `DVYIVLFIIKHG` is at least 0.5.
not satisfied

Decide: protein stability index of `INGINHKIIKIV` >= 0.5?
satisfied

Threshold query (protein stability index >= 0.5) on `NTYKICVVSVTS`
not satisfied

* * *

# Tested on: Saccharomyces cerevisiae
# test-method-notes: protein stability index of tFT-peptide fusion (C-terminal peptide) (PSI (0-1 scale)); higher = more stable (slower turnover)
# test-settings: genetic background: wild type; temperature: 30 C
The following sequences are shown together with reported protein stability index values.
Respond with the number and no other words.

// known answers, use as guide
- GSLGVWKGCGEG: 0.652
- VVIYWFLPIIFA: 0.23
- KKKKKKKKTNKK: 0.762
- TQWRSRRHLKPQ: 0.72
- LVGGRGSRSVEA: 0.739
- DPGGLSNYSRAS: 0.67

Specify reported protein stability index for the sequence shown: `LSPPLPRAPHLS`
0.678

* * *

# Tested on: Saccharomyces cerevisiae
# test-method-notes: protein stability index of tFT-peptide fusion (C-terminal peptide) (PSI (0-1 scale)); higher = more stable (slower turnover)
# test-settings: genetic background: wild type; temperature: 30 C
protein stability index of 0.7 or higher: 1 (yes). Under 0.7: 0 (no).

These solved cases illustrate the format of a correct answer.
* KVVTRSIVLWGV [YGL235W C-terminal 12 aa] | 0 (no)
* TQKKVDQRWKKH [SEN54 C-terminal 12 aa] | 1 (yes)
* DYSRRVLRLMNE [WSC4 C-terminal 12 aa] | 0 (no)
* VRLRGRKRSMLG [BUD32 C-terminal 12 aa] | 0 (no)
* IADELDWLKFGI [GLN3 C-terminal 12 aa] | 1 (yes)
* IYDWAGEYPLAV [SHM2 C-terminal 12 aa] | 1 (yes)

Please tell me: is the sequence TFFDIRQKFVVV [BOP2 C-terminal 12 aa] at or over 0.7 in terms of protein stability index?
0 (no)

Can KLMEAIFRIRTI [YKL106C-A C-terminal 12 aa] be said to have protein stability index at or above 0.7?
0 (no)

Decide: protein stability index of KQPRFQLLFEFS [TTI2 C-terminal 12 aa] >= 0.7?
0 (no)
